# Tested on: Pseudomonas aeruginosa ATCC 27853
# TEST NAME: ≥ marks a high value that may be exact or a test limit, other limits are often not marked, values filed in µg/mL are converted to µM
Kindly state MIC for each of the entries shown.
Answers are plain numbers, in µM.

| SMILES STRUCTURE | MEASURED ON | UNITS | REPORTED |
| --- | --- | --- | --- |
| CC[C@H](C)[C@H](NC(=O)[C@@H](NC(=O)[C@H](CCCN=C(N)N)NC(=O)[C@@H]1CCCN1C(=O)[C@H](CCCCN)NC(=O)[C@H](CCCCN)NC(=O)[C@H](Cc1ccccc1)NC(=O)[C@H](Cc1ccccc1)NC(=O)[C@H](CCCCN)NC(=O)[C@H](CCCCN)NC(=O)[C@H](C)N)C(C)C)C(=O)NCC(=O)N[C@H](C(=O)N[C@@H](CO)C(=O)N[C@H](C(=O)N1CCC[C@H]1C(=O)N[C@@H](Cc1ccccc1)C(=O)O)[C@@H](C)CC)C(C)C | Pseudomonas aeruginosa ATCC 27853 | µM | 3.57 |

Lab note: next compound to report on.
Name the recorded MIC for C[C@H](NC(=O)[C@H](CCCCN)NC(=O)[C@H](Cc1c[nH]c2ccccc12)NC(=O)[C@H](Cc1c[nH]c2ccccc12)NC(=O)[C@H](Cc1c[nH]c2ccccc12)NC(=O)[C@@H]1CCCN1C(=O)[C@H](CCCCN)NC(=O)[C@H](CCCCN)NC(=O)CN)C(=O)N[C@@H](CCCCN)C(N)=O .
190
